# experimental-protocol: LogD determination (PBS/n-octanol)
# Assay type: physicochemical
# test-parameters: 1:1 0.1M PBS/n-octanol, mean of duplicate, 37°C
endpoint-name: logD at 3 h
// response body must contain only the number

Inquiry: Can you share its logD at 3 h? I mean this compound: N[C@H](CNC(=O)C1(c2ccc(Cl)cc2)CCCC1)c1ccc(C(=O)Nc2ccncc2)cc1 [CP612]
Reply text: 1.5

* * *

# target: UniProtKB Q02156
# Sequence (Q02156 whole entry): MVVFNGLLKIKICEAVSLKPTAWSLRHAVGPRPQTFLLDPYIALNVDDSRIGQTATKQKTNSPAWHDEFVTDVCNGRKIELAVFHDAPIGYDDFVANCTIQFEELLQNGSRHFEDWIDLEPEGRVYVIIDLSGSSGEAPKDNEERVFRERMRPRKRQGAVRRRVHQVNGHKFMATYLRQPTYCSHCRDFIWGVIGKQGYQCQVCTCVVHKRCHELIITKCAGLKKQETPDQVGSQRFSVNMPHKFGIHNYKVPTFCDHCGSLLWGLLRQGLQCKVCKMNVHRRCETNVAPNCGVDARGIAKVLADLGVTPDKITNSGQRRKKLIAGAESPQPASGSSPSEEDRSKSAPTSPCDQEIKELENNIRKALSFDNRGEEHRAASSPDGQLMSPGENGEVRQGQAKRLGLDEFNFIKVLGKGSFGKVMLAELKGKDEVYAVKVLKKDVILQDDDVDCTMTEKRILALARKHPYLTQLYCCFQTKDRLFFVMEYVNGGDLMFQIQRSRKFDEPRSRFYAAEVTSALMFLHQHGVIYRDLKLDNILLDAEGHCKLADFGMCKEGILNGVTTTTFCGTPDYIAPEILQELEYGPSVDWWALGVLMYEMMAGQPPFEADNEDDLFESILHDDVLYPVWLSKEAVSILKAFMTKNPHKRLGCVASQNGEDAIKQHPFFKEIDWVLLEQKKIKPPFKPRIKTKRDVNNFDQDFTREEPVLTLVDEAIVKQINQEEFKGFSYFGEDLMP
# experimental-protocol: Lance-FRET kinase assay, PKCε
# Assay type: biochemical
# Set-up: His; AVI; made in house; host or cells: Sf9 cells
# test-parameters: mean of all runs (count 42 CP612; 38 CIDD-0072424); 2.5 μM ATP; read-out: IC50 (nM) [Enzyme: PKCε], mean
endpoint-name: IC50 (nM)
Please reply with the bare figure in nM and do not write the unit itself.

Inquiry: Can you share its IC50? I mean this molecule: N[C@H](CNC(=O)C1(c2ccc(Cl)cc2)CCCC1)c1ccc(C(=O)Nc2ccncc2)cc1 [CP612]
Reply text: 1.9

* * *

# experimental-protocol: Pharmacokinetic studies in rats (plasma and brain)
# Assay type: in vivo
# test-parameters: rat, plasma, iv, 40 mg/kg, i.v. 40 mg/kg, 6h, mean all rats
endpoint-name: concentration at 6 h (µM)
Please reply with the bare figure in µM and do not write the unit itself.

Inquiry: Can you share its concentration at 6 h? I mean this compound: N[C@H](CNC(=O)C1(c2ccc(Cl)cc2)CCCC1)c1ccc(C(=O)Nc2ccncc2)cc1 [CP612]
Reply text: 1.55

* * *

# experimental-protocol: Pharmacokinetic studies in rats (plasma and brain)
# Format: in vivo
# test-parameters: rat, brain, ip, 40 mg/kg, 40 mg/kg i.p., 24 hours; read-out: Brain/plasma concentration ratio
endpoint-name: Kp at 24 h
// response body must contain only the number

Inquiry: Can you share its Kp at 24 h? I mean this compound: N[C@H](CNC(=O)C1(c2ccc(Cl)cc2)CCCC1)c1ccc(C(=O)Nc2ccncc2)cc1
Reply text: 1.18

* * *

# experimental-protocol: Pharmacokinetic studies in rats (plasma and brain)
# Type: in vivo
# test-parameters: rat, plasma, iv, 40 mg/kg, i.v. 40 mg/kg, 4h, mean all rats
endpoint-name: concentration at 4 h (µM)
Please reply with the bare figure in µM and do not write the unit itself.

Inquiry: Can you share its concentration at 4 h? I mean this molecule: N[C@H](CNC(=O)C1(c2ccc(Cl)cc2)CCCC1)c1ccc(C(=O)Nc2ccncc2)cc1 [CP612]
Reply text: 4.11

* * *

# experimental-protocol: Pharmacokinetic studies in rats (plasma and brain)
# Format: in vivo
# test-parameters: rat, plasma, ip, 40 mg/kg, i.p. 40 mg/kg, 15min, individual rat
endpoint-name: concentration at 15 min (µM)
Please reply with the bare figure in µM and do not write the unit itself.

Inquiry: Can you share its concentration at 15 min? I mean this compound: N[C@H](CNC(=O)C1(c2ccc(Cl)cc2)CCCC1)c1ccc(C(=O)Nc2ccncc2)cc1
Reply text: 22

* * *

# experimental-protocol: in vitro
# test-parameters: both, human, microsomes, t1/2 (half life), Mean
endpoint-name: half-life at 8.5 μM (h)
Please reply with the bare figure in h and do not write the unit itself.

Inquiry: Can you share its half-life at 8.5 μM? I mean this compound: N[C@H](CNC(=O)C1(c2ccc(Cl)cc2)CCCC1)c1ccc(C(=O)Nc2ccncc2)cc1
Reply text: 10.5

* * *

# experimental-protocol: Plasma protein binding, equilibrium dialysis (RED)
# Format: in vitro ADME, human
# test-parameters: human, plasma, (Corrected concentration in PBS / Corrected concentration in Plasma) * 100, individual replicates; read-out: % Free
# fraction unbound at 4 h, 10 μM annotations
// response body must contain only the number

sample_smiles=N[C@H](CNC(=O)C1(c2ccc(Cl)cc2)CCCC1)c1ccc(C(=O)Nc2ccncc2)cc1 measured_number=0.121

Now look at this entry.
Inquiry: Can you share its fraction unbound at 4 h, 10 μM? I mean this compound: C[C@]12CC[C@H]3[C@@H](CCC4=CC(=O)CC[C@@]43C)[C@@H]1CC[C@@H]2O
Reply text: 0.0593

* * *

# experimental-protocol: Pharmacokinetic studies in rats (plasma and brain)
# Type: in vivo
# test-parameters: rat, brain, iv, 40 mg/kg, rat, i.v. 40 mg/kg, 24h, mean of RM Plasma + Brain 24h rats; read-out: Brain/Plasma
endpoint-name: Kp at 24 h
// response body must contain only the number

Inquiry: Can you share its Kp at 24 h? I mean this compound: N[C@H](CNC(=O)C1(c2ccc(Cl)cc2)CCCC1)c1ccc(C(=O)Nc2ccncc2)cc1
Reply text: 9.17

* * *

# experimental-protocol: Pharmacokinetic studies in rats (plasma and brain)
# Type: in vivo
# test-parameters: rat, plasma, ip, 40 mg/kg, i.p. 40 mg/kg, 30min, mean all rats
endpoint-name: concentration at 30 min (µM)
Please reply with the bare figure in µM and do not write the unit itself.

Inquiry: Can you share its concentration at 30 min? I mean this molecule: N[C@H](CNC(=O)C1(c2ccc(Cl)cc2)CCCC1)c1ccc(C(=O)Nc2ccncc2)cc1
Reply text: 25.4

* * *

# experimental-protocol: Plasma protein binding, equilibrium dialysis (RED)
# Assay type: in vitro ADME, human
# test-parameters: human, plasma, human plasma, 37°C, 4 hours; read-out: Plasma protein binding (% bound) (converted)
endpoint-name: fraction unbound at 4 h, 10 μM
// response body must contain only the number

Inquiry: Can you share its fraction unbound at 4 h, 10 μM? I mean this molecule: C[C@]12CC[C@H]3[C@@H](CCC4=CC(=O)CC[C@@]43C)[C@@H]1CC[C@@H]2O [Testosterone]
Reply text: 0.0613

* * *

# experimental-protocol: Pharmacokinetic studies in rats (plasma and brain)
# Format: in vivo
# test-parameters: rat, plasma, iv, 40 mg/kg, rat, i.v. 40 mg/kg, 24h, mean of RM Plasma + Brain 24h rats; read-out: Plasma concentration
endpoint-name: concentration at 24 h (nM)
Please reply with the bare figure in nM and do not write the unit itself.

Inquiry: Can you share its concentration at 24 h? I mean this molecule: N[C@H](CNC(=O)C1(c2ccc(Cl)cc2)CCCC1)c1ccc(C(=O)Nc2ccncc2)cc1
Reply text: 192

* * *

# recovery at 4 h, 10 µM annotations
# experimental-protocol: Plasma protein binding, equilibrium dialysis (RED)
# Format: in vitro ADME, human
# test-parameters: human, PBS + Plasma relative to starting concentration of 10 uM, individual replicates; read-out: % Recovery
Please reply with the bare figure in % and do not write the unit itself.

molecule="COCCc1ccc(OCC(O)CNC(C)C)cc1 (centres unmarked)" units_of_measure=% measured_number=66.7

Inquiry: Can you share its recovery at 4 h, 10 µM? I mean this molecule: C[C@]12CC[C@H]3[C@@H](CCC4=CC(=O)CC[C@@]43C)[C@@H]1CC[C@@H]2O
Reply text: 75.2

* * *

# experimental-protocol: Plasma protein binding, equilibrium dialysis (RED)
# Assay type: in vitro ADME, human
# test-parameters: human, human plasma, Rapid Equilibrium Dialysis (RED) device, PBS + Plasma relative to starting concentration of 10 uM, mean of replicates; read-out: % Recovery, Mean
# Protocol: Plasma protein binding. Binding of CP612 to human plasma proteins was measured by equilibrium dialysis using a Rapid Equilibrium Dialysis (RED) Device (Thermo Fisher Scientific). […] Samples were extracted with 3 volumes of acetonitrile, centrifuged at 16,000g at 4°C for 10 minutes, and analyzed by LC-MS to calculate the amount of drug in each chamber. The percentage of free compound was calculated as the concentration in the buffer chamber/concentration in the plasma chamber × 100%. […]
endpoint-name: recovery at 4 h, 10 µM (%)
Please reply with the bare figure in % and do not write the unit itself.

Inquiry: Can you share its recovery at 4 h, 10 µM? I mean this molecule: N[C@H](CNC(=O)C1(c2ccc(Cl)cc2)CCCC1)c1ccc(C(=O)Nc2ccncc2)cc1
Reply text: 57.4

* * *

# experimental-protocol: Pharmacokinetic studies in rats (plasma and brain)
# Format: in vivo
# test-parameters: rat, brain, iv, 40 mg/kg, 40 mg/kg i.v., 24 hours; read-out: Brain/plasma concentration ratio
# Description: Because binding to plasma protein was approximately 90%, we predicted that the free concentration at each time point was 10 times lower than the measured plasma concentration. Pharmacokinetic studies in rats. Pharmacokinetics studies were contracted to the Drug Metabolism and Pharmacokinetics Core at Scripps Research. […] CP612 was detected with an API Triple Quad 5500 LC-MS/MS (SCIEX) using an MRM(+) method: CP612 (463/282, m/z) with carbamazepine (238/195.1, m/z) as an internal standard.
endpoint-name: Kp at 24 h

Inquiry: Can you share its Kp at 24 h? I mean this compound: N[C@H](CNC(=O)C1(c2ccc(Cl)cc2)CCCC1)c1ccc(C(=O)Nc2ccncc2)cc1 [CP612]
Reply text: 9.17

* * *

# experimental-protocol: Plasma protein binding, equilibrium dialysis (RED)
# Assay type: in vitro ADME, human
# test-parameters: human, human plasma, 37°C, 4 hours; read-out: Plasma protein binding (% bound) (converted)
endpoint-name: fraction unbound at 4 h, 10 μM
// response body must contain only the number

Inquiry: Can you share its fraction unbound at 4 h, 10 μM? I mean this molecule: N[C@H](CNC(=O)C1(c2ccc(Cl)cc2)CCCC1)c1ccc(C(=O)Nc2ccncc2)cc1 [CP612]
Reply text: 0.102

From: paper PMC12016938
